Hey, just so you know, these numbers are from paper PMC5861428.

Tested on: Fab clone 10 (Fab 10) (synthetic), PDB:6B14_1+PDB:6B3K_2
Assay: filter binding
pKd: −log10 of the molar value.
Entries and their measured pKd follow.
value type: pKd

* UGCGACCAUGGUGAGACCCGCCAUGGUCGC [N9RNA1 HP (AM HP)] | 8.05
* GUCCAGUAGGAACACUAUACUACUGGAUAAUCAAAGACAAAUCUGCCCGAAGGGCUUGAGAACAUCGAAACACGAUGCAGAGGUGGCAGCCUCCGGUGGGUUAAAACCCAACGUUCUCAACAAUAGUGA [WT-BLP] | 7.52
* GGCGACCAUGGAAACACCAUGGUCGC [WT-RNA HP (WT BL3-6 HP)] | 7.55
